Property: PBM binding z-score; scope: individual sequences
# System: THRa:RXRa (NR concentration 90 nM, RXRa partner concentration 90 nM)
# protocol: PBM binding z-score (relative to random genomic background probes); higher = stronger binding; sequences stand for … in GC…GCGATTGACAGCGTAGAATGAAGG

- polymer.sequence: "GCTGCTAGGTCAGGTTGGTCAGCTAACGGGTACG"
  tested.system: "THRa:RXRa (NR concentration 90 nM, RXRa partner concentration 90 nM)"
  result: 1.84
- polymer.sequence: "GCTCGGAGGACAAGGTCAGGGCTTTGTCCGTAGA"
  tested.system: "THRa:RXRa (NR concentration 90 nM, RXRa partner concentration 90 nM)"
  result: 3.22
- polymer.sequence: "CGAACTAGGACACCAGGACAGTGAAGAGGTTGGA"
  tested.system: "THRa:RXRa (NR concentration 90 nM, RXRa partner concentration 90 nM)"
  result: 1.83
- polymer.sequence: "CGAACTACGTCAAAGGACAGTGAAAGGCGACGTA"
  tested.system: "THRa:RXRa (NR concentration 90 nM, RXRa partner concentration 90 nM)"
  result: 0.0886
- polymer.sequence: "CGAACTAGCTCAAAGGACAGTGAAAGGCGACGTA"
  tested.system: "THRa:RXRa (NR concentration 90 nM, RXRa partner concentration 90 nM)"
  result: 0.0409

// next item, PBM binding z-score requested
Find the recorded PBM binding z-score belonging to TAGCCAAGGTCAGATCGGGCCAGTATACGCTATA and report it.
4.32

###

# Tested on: LXRa:RXRa (NR concentration 270 nM, RXRa partner concentration 90 nM)
# protocol: PBM binding z-score (relative to random genomic background probes); higher = stronger binding; sequences stand for … in GC…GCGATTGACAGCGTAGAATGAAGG
Property: PBM binding z-score; scope: individual sequences

- polymer.sequence: "CTAACTAGGTCACCAGGACAGTGAAGAGGTTGGA"
  PBM binding z-score: 2.77

Find the recorded PBM binding z-score belonging to CTCGAAAGGTCGTCCTCAGGTGAGTATACCAAAC and report it.
3.75

What about this sequence? CGTCCGAGGTCAATGCTAGGTCAGTGAAAGCATT
5.94

###

# System: RARg:RXRa (NR concentration 270 nM, RXRa partner concentration 90 nM)
# protocol: PBM binding z-score (relative to random genomic background probes); higher = stronger binding; sequences stand for … in GC…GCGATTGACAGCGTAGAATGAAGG
Property: PBM binding z-score; scope: individual sequences
Reply briefly: the number, and no unit.

Find the recorded PBM binding z-score belonging to ACTAGCAGGCCAAGGGTGACTCAAGATTAGTCCG and report it.
0.341

###

# Test system: PPARg:RXRa 90nM:30nM, anti-RXR (NR concentration 90 nM, RXRa partner concentration 30 nM)
# protocol: PBM binding z-score (relative to random genomic background probes); higher = stronger binding; sequences stand for … in GC…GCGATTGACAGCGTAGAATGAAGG
# cutoff 6 applies to PBM binding z-score; >= gives Criterion met, < gives Criterion not met

- polymer.sequence: "CCGACTAGGTTACGAGGGGGCATTCAGTGCGAAT"
  group.label: "Criterion not met"
- polymer.sequence: "CTATGTAGGTTAAGGGGGACATTCAGTTTGAAAG"
  group.label: "Criterion met"
- polymer.sequence: "CTATGTCGGTTAAGGGGGTCATTCAGTTTGAAAG"
  group.label: "Criterion not met"
- polymer.sequence: "ACTTACGGGTCAACGAAGTTATAGCACGCGTATA"
  group.label: "Criterion not met"
- polymer.sequence: "TAGAGTAGGTTACGGGGGCATTCAGGGATGAAGA"
  group.label: "Criterion not met"
- polymer.sequence: "CGAACTAGGTCAAAGGTCAGTGAAAGGCGACGTA"
  group.label: "Criterion met"
- polymer.sequence: "TGGAGTAGGTTACGGGGGCATTCAGGGATGAAGA"
  group.label: "Criterion not met"
- polymer.sequence: "CGTCCAAGGTCAGAGAGGTCACTGAATGCCGAGT"
  group.label: "Criterion not met"

Entry GATAAAGGGTCAGCTAGAGGCCAGAGTATGGAAA : is its PBM binding z-score no less than 6?
Criterion not met

What about this sequence? CGAACTAGGTCTCCAGGACAGTGAAGAGGTTGGA
Criterion not met

What about this sequence? CAACCTAGGTCACGAAAGGTCAAAGTCGAATGAC
Criterion met

What about this sequence? CGAACTAGGTCACCAGGTCAGTGAAGAGGTTGGA
Criterion met
